Provenance of the data: patent US20150299263A1

Target: T1, Human receptor grade IGF-II (insulin-like growth factor II) (human, UniProt P01344 25-91)
T1 construct: Bought recombinant protein, overlaid in solution on the VN-peptide array
T1 sequence (P01344 25-91 limits assumed): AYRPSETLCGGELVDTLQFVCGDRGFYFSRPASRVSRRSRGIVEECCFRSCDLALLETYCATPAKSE
Assay: VN-peptide array, ligand overlay, immunoblot/ECL, TotalLab spot intensity
Where no end group is shown, it is not given here.
I'd appreciate it if you could supply Intensity (against -ve control) values for the items below.

binder	endpoint_value
SEESNLGANNYDDYRM (not fully specified (N-terminus); also: free end capped by acetylation, immobilised on cellulose membrane (SPOT synthesis)) [VN-peptide 7B (array grid I8)]	18 fold over negative controls

Value sought for every listed binder: Intensity (against -ve control).
1. ALALPAHSYSGRERVY (not fully specified (N-terminus); also: free end capped by acetylation, immobilised on cellulose membrane (SPOT synthesis)) [VN-peptide 3B (array grid F6)]
2. LFSSEESNLGANNYDD (not fully specified (N-terminus); also: free end capped by acetylation, immobilised on cellulose membrane (SPOT synthesis)) [VN-peptide 7A (array grid I7)]
3. Ac-LRTRRVDTVDPPYPRS (also: immobilised on cellulose membrane) [VN-peptide 8C (array grid J6)]

1: 10 fold over negative controls; 2: 17 fold over negative controls; 3: 13 fold over negative controls

Provide reported Intensity (against -ve control) for each item, in the same order as listed.
1. VDAALALPAHSYSGRE (not fully specified (N-terminus); also: free end capped by acetylation, immobilised on cellulose membrane (SPOT synthesis)) [VN-peptide 3A (array grid F5)]
2. Ac-RRVDTVDPPYPRSIAQ (also: immobilised on cellulose membrane) [VN-peptide 8D (array grid J7)]

["5 fold over negative controls", "11 fold over negative controls"]
